system: SK-OV-3 ovarian; test: NCI-60 one-dose screen, 48 h (100 = growth as untreated, 0 = no growth, -100 = all killed); conditions: 10 µM
This is part of a sample that, as a whole, favours compounds with a hit. Of some 83,000 tested, about 20% had one in any assay. Calls of active or inactive are those of the source. The calls were made as follows: active = growth percent below 10; inactive = the rest.
# reported growth; entries follow

Solved cases (5 shown):
# input Give growth for Cc1cc(CC(C)CC(C)(C)C)n(O)c(=O)c1 (stereo not drawn) (tested in a mixture with another compound)
# output 57.6% (inactive)

# input Respond only with growth recorded for `N#Cc1ccc(C(=O)CSc2nccc(Nc3ccc(C(=O)O)cc3)n2)cc1`
# output 106% (inactive)

# input Quote growth reported for `CC(C)(C)c1ccc(S(=O)(=O)N[C@H]2CC[C@H]3[C@@H]4CCc5cc(OS(=O)(=O)O)ccc5[C@H]4CC[C@]23C)cc1` please.
# output 82.1% (inactive)

# input Consider the compound `COc1cc(-c2nn(-c3cccc(NC(=O)CN4CCOCC4)c3)cc2-c2cccnc2)ccc1Cl` . State its measured growth.
# output 95.8% (inactive)

# input Return the recorded growth value; entry: OC(CNc1ccnc2cc(Cl)ccc12)CNC1CCCCC1 (stereo not drawn)
# output 85.1% (inactive)

***
# input Supply reported growth belonging to this compound: CC(=O)O[C@@]12CO[C@@H]1C[C@H](O)[C@@]1(C)C(=O)[C@H](O)C3=C(C)[C@@H](OC(=O)[C@H](O)[C@@H](NC(=O)OC(C)(C)C)c4ccccc4)C[C@@](O)([C@@H](OC(=O)c4ccccc4)C12)C3(C)C (stereo partly drawn)
# output 47.3% (inactive)

# input Indicate the recorded growth value for this compound: `CCn1c2ccc(O)cc2c2c(C)c3c[n+](C)ccc3c(C)c21`
# output 71.2% (inactive)

# input Supply reported growth belonging to this compound: Cc1cc(C(C#N)c2ccc(Cl)cc2)c(Cl)cc1NC(=O)c1cc(I)cc(I)c1O (stereo not drawn)
# output 85.2% (inactive)

* * *

test system: CCRF-CEM leukemia; assay: NCI-60 one-dose screen, 48 h (100 = growth as untreated, 0 = no growth, -100 = all killed); details: 10 µM
The panel holds about 83,000 compounds, 20% with a hit somewhere; the sample as a whole holds those more often.
// growth lookup, one value per entry
Provide only the numeric value, understood in %.

Examples from the recorded data:
# input Quick one: give measured growth for `O=C(CCl)Nc1ccc(Cc2ccc(NC(=O)CCl)cc2)cc1`
# output 0.0611

# input Respond only with growth recorded for `CN1CCN(CC(=O)Nc2cccc(-n3cc(-c4ccncc4)c(-c4ccc(Cl)c(O)c4)n3)c2)CC1`
# output 23.9

# input Input C1CN(CC2CCC(CN3CCOCC3)O2)CCO1 (centres undefined) , output reported growth.
# output 50.4

---
# input Supply recorded growth for `CC(=O)Nc1ccc(CC[C@H]2CCC/C=C/[C@@H]3C[C@H](O)C[C@H]3[C@H](O)/C=C/C(=O)O2)cc1` here.
# output -4.29

# input Complete the entry with growth for COc1cc(/C=C2\CCCC3=C2NC(N)=NC3c2cc(OC)c(OC)c(OC)c2)cc(OC)c1OC (centres undefined)
# output 2.89

# input Answer with the recorded growth of CCC(c1ccc(OC)cc1)C(CC)c1ccc(O)c(CN2CCN(C)CC2)c1 (centres undefined) only.
# output 56.9

# input Note down growth recorded for `Nc1ccc(/C=N/Nc2ccnc3c(O)cccc23)c2cccnc12`
# output 14.4

* * *

test system: SF-268 CNS; assay: NCI-60 one-dose screen, 48 h; conditions: 10 µM
Compounds without any hit were thinned out: in the full panel of roughly 83,000, 20% have a hit. Active and inactive are the calls of the source. The calls were made as follows: active = growth percent below 10; inactive = the rest.
Outcome field: choose from active, inactive

# input Each molecule tested received a call. Report the one for `O=C(CCCNC(=O)c1nc(-c2ccccc2)n(-c2ccccc2)n1)NO` .
# output inactive

# input Look up the recorded call for C=CCN(CC=C)C(=O)[C@H](CC)[C@@H]1CC[C@@H](C)[C@@H]([C@H](C)[C@@H](O)[C@@H](C)C(=O)[C@H](CC)C2O[C@]3(C=CC(=O)[C@]4(CC[C@@](C)([C@H]5CC[C@](O)(CC)[C@H](C)O5)O4)O3)[C@H](C)C[C@@H]2C)O1 (stereo partly drawn) in this test.
# output inactive

# input Hi, do you know how `Cc1c(Cl)cccc1NC(=O)CCCl` came out in this test?
# output inactive

# input Which outcome did this test record for the molecule `CCN(CC)CC(=O)N(CC)c1ccc(C)c(Cl)c1` ?
# output inactive

# input Identify the outcome logged in this assay for the molecule shown: `CN1CCN(CC(=O)Nc2cccc(-n3cc(-c4ccncc4)c(-c4ccc(Cl)c(O)c4)n3)c2)CC1`
# output inactive

Next:
# input Per the records of this test, what outcome belongs to `COc1ccc(-c2nn(-c3cccc(Cl)c3)cc2-c2cc(-c3ccccc3)nc(N)n2)cc1` ?
# output inactive

* * *

tested on: SK-OV-3 ovarian; assay: NCI-60 one-dose screen, 48 h (100 = growth as untreated, 0 = no growth, -100 = all killed); details: 10 µM
This is part of a sample that, as a whole, favours compounds with a hit. Of some 83,000 tested, about 20% had one in any assay.
growth strictly less than 70% = fulfilled. Otherwise not fulfilled.

# input Does the reported growth of the following compound sit strictly below 70%? `COc1ccc(-c2nn(-c3cccc(Cl)c3)cc2-c2c(C#N)c(=O)n3[nH]c(-c4ccccc4)nc3c2C#N)cc1`
# output not fulfilled

***
# input Dear colleague, could you confirm whether growth of `NC(=O)c1cccc(-n2ccc3cc(NC(=O)Nc4ccc(Cl)c(C(F)(F)F)c4)ccc32)n1` falls below 70%? Thanks.
# output not fulfilled

# input For this compound, is growth lower than 70%? `COc1ccc(/C(C#N)=C/c2ccccc2OC)cc1`
# output fulfilled

* * *

test system: KM12 colon; assay: NCI-60 one-dose screen, 48 h (100 = growth as untreated, 0 = no growth, -100 = all killed); conditions: 10 µM
About 83,000 compounds went through this panel and 20% of them were active in at least one assay; those are over-represented in the sample as a whole. Calls of active or inactive are those of the source. The calls were made as follows: active = growth percent below 10; inactive = the rest.
Reported metric: growth

// worked examples, growth included
# input For the molecule C=CCN(CC=C)C(=O)[C@H](CC)[C@@H]1CC[C@@H](C)[C@@H]([C@H](C)[C@@H](O)[C@@H](C)C(=O)[C@H](CC)C2O[C@]3(C=C[C@@H](O)[C@]4(CC[C@@](C)([C@H]5CC[C@](O)(CC)[C@H](C)O5)O4)O3)[C@H](C)C[C@@H]2C)O1 (stereo partly drawn) , give its reported growth.
# output 27.5% (inactive)

# input Look up and state reported growth for `CCN(CC)CCCOc1cccc2c1C(=O)c1cccc(OCCCN(CC)CC)c1C2=O`
# output 40.9% (inactive)

# input Please report the measured growth for `Cc1ccc(NC(=S)NNC(=S)Nc2ccc(C)cc2)cc1`
# output 60.5% (inactive)

# input Given the molecule OC(CCN1CCCC1)(c1ccccc1)C1CCCCC1 (stereo not drawn) , write its reported growth.
# output 101% (inactive)

# input Give growth for the following molecule: `CN(C)CCCOc1ccc(NC2=C(Cl)C(=O)C(Nc3ccc(OCCCN(C)C)cc3)=C(Cl)C2=O)cc1`
# output -63% (active)

# input Tell me growth reported for CCCN1CN2C(=O)N3CN(CCC)CN4C(=S)N(C1)C2C34 (stereo not drawn)
# output 101% (inactive)

Further cases:
# input Please list growth recorded for the molecule `Fc1ccc2[nH]cc(-c3nc(-c4ccsc4)cs3)c2c1`
# output 101% (inactive)

# input Answer with the recorded growth of `CCCc1nc(C(C)(C)O)c(C(=O)O)n1Cc1ccc(-c2ccccc2-c2nn[nH]n2)cc1` only.
# output 120% (inactive)

# input State, in one line, measured growth of `COc1cc(-c2nn(-c3cccc(NC(=O)CCN4CCN(Cc5ccccc5)CC4)c3)cc2-c2ccncc2)ccc1Cl`
# output 9.7% (active)

# input Fill in growth for record `Cc1[nH]c2ccccc2c1/C=N/Nc1ncnc2sc3c(c12)CCN(CC(=O)OC(C)(C)C)C3`
# output 76% (inactive)

# input Input CO[C@H]1CC(O[C@@H]2/C(C)=C/C[C@@H]3C[C@@H](C[C@]4(C=C[C@H](C)[C@@H](C5CCCCC5)O4)O3)OC(=O)[C@@H]3C=C(C)[C@@H](O)[C@H]4OC/C(=C\C=C\[C@@H]2C)[C@]43O)O[C@@H](C)C1O[C@H]1C[C@H](OC)[C@@H](O)[C@H](C)O1 (stereo partly drawn) , output reported growth.
# output -88.6% (active)

* * *

system: HOP-62 NSCLC; assay: NCI-60 one-dose screen, 48 h; conditions: 10 µM
The panel holds about 83,000 compounds, 20% with a hit somewhere; the sample as a whole holds those more often. Activity calls are given as the source filed them. How the source made its calls: active means growth percent below 10; inactive means the rest.
Respond with a class label; see active, inactive

# input Given `CC(=O)N[C@H](C(=O)N[C@@H](CCCNC(=N)N)C(=O)N[C@@H](CCCCN)C(=O)N[C@@H](CCCNC(=N)N)C(=O)N[C@]1(C)CCCCCC/C=C\CCC[C@@](C)(C(=O)N[C@@H](CCCNC(=N)N)C(=O)N[C@@H](CCC(=O)O)C(=O)N[C@@H](CC(C)C)C(=O)N[C@H](C(=O)N[C@@H](CCC(=O)O)C(N)=O)C(C)C)NC(=O)[C@H](CCC(N)=O)NC(=O)[C@H](CC(C)C)NC(=O)[C@H](CC(C)C)NC(=O)[C@H](CCCNC(=N)N)NC(=O)[C@H](CCCNC(=N)N)NC(=O)[C@H](CC(C)C)NC1=O)C(C)C` , state the outcome it received in this test.
# output active

# input Write down the call the test reported for this compound. Item: `NS(=O)(=O)Oc1ccc2c(ccn2C(=O)C23CC4CC(CC(C4)C2)C3)c1`
# output inactive

# input # lookup: test call for COC1OC(COS(=O)OC)C(O)C(O)C1OS(=O)OC (stereo unspecified)
# output inactive

# input Please indicate how the test categorized `O=C(CC(CC(=O)c1ccccc1)c1ccccc1O)c1ccccc1` .
# output inactive

# input In this assay, the call recorded for `COc1ccccc1N1CCCSC1=Nc1ccccc1` was what?
# output active

# input Tell me the recorded outcome of this test for `CN(C)CCCOc1cccc(NC2=C(Cl)C(=O)C(Nc3cccc(OCCCN(C)C)c3)=C(Cl)C2=O)c1` .
# output active
